Data provenance: ChEMBL document CHEMBL1147678

Test system: CCRF-CEM
Assay: Antiproliferative activity against FPGS-deficient CCRF-CEM cell line
Assay type: functional, cell-based
Settings: Homo sapiens
pIC50: −log10 of the molar value.
measured parameter: pIC50

Nc1nc(N)c(CCCC(C(=O)C(F)(F)F)c2ccc(C(=O)N[C@@H](CCc3nnn[nH]3)C(=O)O)cc2)c(=O)[nH]1 (stereo not given in full) = 7.30
Nc1nc2c(c(=O)[nH]1)C[C@@H](CCc1ccc(C(=O)N[C@@H](CCC(=O)O)C(=O)O)cc1)CN2 [LOMETREXOL] = 4.60
Nc1nc(N)c(CCCC(C(=O)C(F)(F)F)c2ccc(C(=O)NCc3nnn[nH]3)cc2)c(=O)[nH]1 (stereo not given) = 4.40
